B1: MYBL2 (parent)
chain: FPNRTDQQCQYRWLRVLNPDLVKG

- Variants of: B1
- method.summary: protein stability index of a GFP-peptide fusion (GPS, HEK-293T) (PSI 1-6); higher = more stable;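 note: lentivirally expressed fusions sorted by FACS into six bins by GFP to DsRed ratio, PSI derived from sequencing read proportions per bin multiplied by bin number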
- study.conditions: c terminus: a fixed tail appended
Use 2 as the dividing line for protein stability index, with the line itself on the Met side and lower values as Not met.

A selection of reference data follows.
- alteration: "R4K"
  class.label: "Met"
- alteration: "Q7T"
  class.label: "Not met"
- alteration: "L14F"
  class.label: "Not met"

Q. In plain terms: is recorded protein stability index at least 2 for Q8T ?
A. Not met

Q. Form field: protein stability index at least 2? Entry: Q7E
A. Met

Q. Entry P19I : is its protein stability index no less than 2?
A. Met

Q. Can Q7F be said to have protein stability index at or above 2?
A. Not met

Q. Could you tell me if the measured protein stability index of R15G reaches 2 or more?
A. Met

Q. Is it the case that Q10C has protein stability index reaching or exceeding 2?
A. Met

Q. Entry L14G : is its protein stability index no less than 2?
A. Not met

Source: the supplement of paper PMC10567573
